System: NCI-H23 lung
experiment: NCI-60 one-dose screen, 48 h
testParameters: 10 µM unless noted
About 83,000 compounds went through this panel and 20% of them were active in at least one assay; those are over-represented in the sample as a whole. Active and inactive are the calls of the source. Rule for the calls: active = growth percent below 10; inactive = the rest.
Possible outcomes: label 1 for active, label 0 for inactive

compound: Nc1nc(Nc2ccccc2)c2ncn(Cc3cc4c(cc3Br)OCO4)c2n1
targetOfAssay: NCI-H23 lung
classAssignment: label 0
--
compound: CC1Cc2c(ncnc2-n2cnc3ccccc32)N(C)c2ccccc21 (configuration not stated)
targetOfAssay: NCI-H23 lung
classAssignment: label 0
--
compound: CCN1c2ccccc2C(Cl)(c2ccc(N(C)C)cc2)c2ccccc21
targetOfAssay: NCI-H23 lung
classAssignment: label 0
--
compound: COc1ccc2c(c1)c(-c1noc(C(=O)c3cn(C)c4ncc(Br)cc34)n1)cn2C
targetOfAssay: NCI-H23 lung
classAssignment: label 0
--
compound: O=C(Nc1ccc(CN2CCOCC2)c(C(F)(F)F)c1)c1nc2ccc3[nH]ncc3c2c2c1CCCC2
targetOfAssay: NCI-H23 lung
classAssignment: label 0
--
compound: O=C(Nc1ccc(Nc2ccncc2)cc1)c1ccc([N+](=O)[O-])cc1
targetOfAssay: NCI-H23 lung
classAssignment: label 0
--
compound: Nc1nc(SCc2cccc([N+](=O)[O-])c2)c2[nH]cnc2n1
targetOfAssay: NCI-H23 lung
classAssignment: label 0
--
compound: CCOc1ccccc1/C=N\Nc1ccc(S(=O)(=O)c2ccc(N/N=C/c3ccccc3OCC)cc2)cc1
targetOfAssay: NCI-H23 lung
classAssignment: label 0
--
compound: CC1(C)CC[C@]2(C(N)=O)CC[C@]3(C)C(=CC[C@@H]4[C@@]5(C)C/C(=C/c6cccnc6)C(=O)C(C)(C)[C@@H]5CC[C@]43C)[C@@H]2C1
targetOfAssay: NCI-H23 lung
classAssignment: label 1
--
compound: COc1ccc2nc3c(cc2c1)C(=O)CC(c1ccccc1)C3 (configuration not stated)
targetOfAssay: NCI-H23 lung
classAssignment: label 0
--
compound: Nn1c(Nc2ccc(S(=O)(=O)Nc3ncccn3)cc2)nnc(/C=C/c2c(O)ccc3ccccc23)c1=O
targetOfAssay: NCI-H23 lung
classAssignment: label 0
--
compound: C#C[C@]1(O)CC[C@H]2[C@@H]3CC=C4c5nc(Nc6ncccn6)sc5CC[C@]4(C)[C@H]3CC[C@@]21C
targetOfAssay: NCI-H23 lung
classAssignment: label 0
--
compound: O=C1COCCN1c1ccc(NCc2cn(Cc3ccccc3)c3ccccc23)cc1
targetOfAssay: NCI-H23 lung
classAssignment: label 0
--
compound: Cc1cccc(/C=C2\N=C(c3ccccc3)N(c3ccc(S(N)(=O)=O)cc3)C2=O)c1
targetOfAssay: NCI-H23 lung
classAssignment: label 0
--
compound: CSc1nc(=S)c2nc(SC)n(-c3ccccc3)c2[nH]1
targetOfAssay: NCI-H23 lung
classAssignment: label 0
--
compound: Cc1cc(SC#N)ncn1
targetOfAssay: NCI-H23 lung
classAssignment: label 0
--
compound: Cc1c(Cn2cc(COc3ccc(Br)cc3)nn2)c(C)c(Cn2cc(COc3ccc(Br)cc3)nn2)c(C)c1Cn1cc(COc2ccc(Br)cc2)nn1
targetOfAssay: NCI-H23 lung
classAssignment: label 0
--
compound: C=C(C)[C@@H]1CC[C@]2(c3ncc(C)o3)CC[C@]3(C)[C@H](CC[C@@H]4[C@@](C)(CCC#N)[C@H](C(=C)C)CC[C@]43C)[C@@H]12
targetOfAssay: NCI-H23 lung
classAssignment: label 1
--
compound: C#CC(OC(=O)N(C)C)(c1ccccc1)c1ccc(F)cc1 (configuration not stated)
targetOfAssay: NCI-H23 lung
classAssignment: label 0
--
compound: Cc1nn(-c2ccccc2)c(N2CCOCC2)c1-c1nc2ccc([N+](=O)[O-])cc2[nH]1
targetOfAssay: NCI-H23 lung
classAssignment: label 0
--
compound: Cc1cnc(N)nc1OCCNC(=O)c1cccc(-c2ccc(S(=O)(=O)Nc3ccc4c(c3)N(C(=O)C3CC3)CCC4)cc2)c1
targetOfAssay: NCI-H23 lung
classAssignment: label 0
--
compound: O=c1[nH]cnc2c1ccn2C1OC(CO)C(O)C1O (configuration not stated)
targetOfAssay: NCI-H23 lung
classAssignment: label 0
--
compound: CC1(C)CC[C@]2(C(N)=O)CC[C@]3(C)C(=CC[C@@H]4[C@@]5(C)C/C(=C/c6ccncc6)C(=O)C(C)(C)[C@@H]5CC[C@]43C)[C@@H]2C1
targetOfAssay: NCI-H23 lung
classAssignment: label 1
--
compound: O=C(O)c1cn(C2CC2)c2cc(N3CCN(Cc4cc(Cl)ccc4O)CC3)c(F)cc2c1=O
targetOfAssay: NCI-H23 lung
classAssignment: label 0
--
compound: CC(C)C1=NOC(=O)C1=Cc1cn(-c2cccnc2)nc1-c1ccccc1
targetOfAssay: NCI-H23 lung
classAssignment: label 0
--
compound: COCCCNc1nc(NC(=O)c2cc(OC)cc(OC)c2)cc(-c2cccnc2)n1
targetOfAssay: NCI-H23 lung
classAssignment: label 0
--
compound: CCCCCCSc1ncnc2nc[nH]c12
targetOfAssay: NCI-H23 lung
classAssignment: label 0
--
compound: CC(C)C1=NOC(=O)C1=Cc1cn(-c2ccco2)nc1-c1ccccc1
targetOfAssay: NCI-H23 lung
classAssignment: label 0
--
compound: Cc1ccc(NC(=O)N[C@@H](Cc2cc(F)cc(F)c2)C(=O)N[C@@H]2C(=O)N3CCC[C@H]3C(=O)N3CCOC[C@H]3C(=O)N[C@@H](C)C(=O)N3C[C@H](C)C[C@H]3C(=O)O[C@H]2C)cc1
targetOfAssay: NCI-H23 lung
classAssignment: label 0
--
compound: O=C(N/N=C\c1cc(Cl)ccc1O)N/N=C/c1cc(Cl)ccc1O
targetOfAssay: NCI-H23 lung
classAssignment: label 0
--
compound: CCn1cc(-c2ccnc(NCCNS(=O)(=O)c3cccc4ccccc34)c2)c(-c2cccc(O)c2)n1
targetOfAssay: NCI-H23 lung
classAssignment: label 0
--
compound: CN(C)Cc1ccc[nH]1
targetOfAssay: NCI-H23 lung
classAssignment: label 0
--
compound: COc1cc(/C=C/C(=O)/C=C/c2ccc(-n3ccnc3C)cc2)ccc1O
targetOfAssay: NCI-H23 lung
classAssignment: label 0
--
compound: C[n+]1c(-c2ccccc2)c2cc(N)ccc2c2ccccc21
targetOfAssay: NCI-H23 lung
classAssignment: label 0
--
compound: COc1cc2c(c(OC)c1OC)-c1cc(I)c(O)cc1[C@@H](NC(C)=O)CC2
targetOfAssay: NCI-H23 lung
classAssignment: label 0
--
compound: Cc1cc(NN=C(c2ccc(O)cc2)c2ccc(O)cc2)c([N+](=O)[O-])cc1[N+](=O)[O-]
targetOfAssay: NCI-H23 lung
classAssignment: label 0
--
compound: C=C(C)[C@@H]1CC[C@]2(COCCCN)CC[C@]3(C)[C@H](CC[C@@H]4[C@@](C)(CCCNCCCN)[C@H](C(=C)C)CC[C@]43C)[C@@H]12
targetOfAssay: NCI-H23 lung
classAssignment: label 1
